- target: MS2 coat protein, dlFG mutant (Escherichia phage MS2, UniProt P03612, del68-81insG)
- testMethodNotes: 4 mM Mg2+; no ligand; RNA-MaP array; 100 mM Tris-HCl pH 7.5, 80 mM KCl, 4 mM MgCl2, 0.1 mg/mL BSA, 1 mM DTT, 0.01 mg/mL yeast tRNA, 0.01% Tween-20; protein 1.5 nM to 3 uM; 37 C (Table S3)
- testSettings: chain copies: 2; label: tethered by stalled RNA polymerase
pKd: −log10 of the molar value.
measure: pKd

Below: 4 binders and their reported pKd.
binder="Eterna 7627109 (Same State - Theophylline A) (ssRNA) RNA: CUCCGAGGCUAUACUAUCCGCCUCUGUGAUACCAGAAUACCUAUAUUCCCUUGGCAGCAUCACAUGAGGAUCACCCAUGUGCCAU" measuredresult=7.88
binder="Eterna 6457817 (Inverted Small Loop Same State NG 3) (ssRNA) RNA: GCGUAAUAGGUGUAGCUAGUCGUUCAAGAAGGGUGAAGAACAUGAGGAUCACCCAUGUGGUCUAUACAGGAUAUUGAUAUACGC" measuredresult=6.22
binder="Eterna 7687680 (Same State - Theophylline A) (ssRNA) RNA: AUUGAUAUAUAUAUUUGAUUUUUAUGUGAUACCAGACAAGGCAUAGUCCCUUGGCAGCACUUUAUAUUUACGAGUGAUGUUCGUA" measuredresult="< 5.52"
binder="Eterna 7730944 (Same State - Tryptophan A) (ssRNA) RNA: UAAAACGCUUGAAUAACAAGCGAAAAUUCGCGAGGACCGGUACGGCCGCCACUCGCUAACUGCGAGUGAUGUUCGAUAAUAAAAU" measuredresult="< 5.52"

Entry under test: Eterna 7690487 (Same State - Theophylline B) (ssRNA) RNA: UGUCAUUGGUCUGAUACCAGUUAGACCGAUAGGUCAAAACUGGAGUGAUGUUCCCAAAAUAACCCUUGGCAGCAGACCGAUGACU . Its pKd was < 5.52

Entry under test: Eterna 7726887 (Same State - Arginine A) (ssRNA) RNA: AAUACCUGAGUGAUGUUCAGGGAAUCAGAAGGAGCGUCAAUUAUGACAGGUAGGUCGCUGAAGACAUGUGUGUAUACACAUGUCC . Its pKd was < 5.52

Entry under test: Eterna 7753129 (Same State - Arginine B) (ssRNA) RNA: GGGUUGAACUGAAGGAGCGAGAAAUAGAAAGUAAGAAGAUAAGCUAGUGAUGUUAGAAAUUCUCAGGUAGGUCGCAGUAAGAAUU . Its pKd was < 5.52

Entry under test: Eterna 7690543 (Exclusion - Theophylline B) (ssRNA) RNA: AUUUAAUUAACUGAUACCAGACUUUAUGUAUUUAUUAAAACUAGUGAUGUUAGUUUAUCUGUCCCUUGGCAGCAGUUUCUACUUA . Its pKd was < 5.52

Entry under test: Eterna 7730362 (Exclusion - Arginine B) (ssRNA) RNA: GGACUAACCAGAAGGAGCGGCGCGCAGAAACUGCUAAUUCCUCCGCACGAGGAUCACCCGUGUCAGGUAGGUCGCUGGUUAGUCG . Its pKd was 8.00
